Every entry's value here was drawn from paper PMC4674085.

- assayNotes: Thioflavin T fluorescence (ThT)
- Assay type: physicochemical
- statedConditions: pH 7.3, 50 mM HEPES, crude peptide fibrillized at 160 μM, mixed 10:1 with 50 μM ThT, ex 440 nm em 480 nm
Decide using ThT, fold increase in ThT fluorescence over background: a value greater than or equal to 100 fold is true, a smaller one is false.

substance | label
Ac-YVAVHVHV-NH2 [Peptide 27, Ac-YVAVHVHV-CONH2] | true
Ac-YVHVHVHV-NH2 [Peptide 8, Ac-YVHVHVHV-CONH2] | true
Ac-YVSVSVHV-NH2 [Peptide 12, Ac-YVSVSVHV-CONH2] | true
Ac-YVHVHVSV-NH2 [Peptide 11, Ac-YVHVHVSV-CONH2] | false
Ac-YVDVHVDV-NH2 [Peptide 25, Ac-YVDVHVDV-CONH2] | false
Ac-YVHVHVDV-NH2 [Peptide 21, Ac-YVHVHVDV-CONH2] | true
Ac-YVSVHVHV-NH2 [Peptide 9, Ac-YVSVHVHV-CONH2] | false
Ac-YVHVAVHV-NH2 [Peptide 28, Ac-YVHVAVHV-CONH2] | true
Ac-YVHVSVHV-NH2 [Peptide 10, Ac-YVHVSVHV-CONH2] | false
